List of inhibition at 0.1 µg/mL values.
# MEASURED_ON: dihydrofolate reductase (DHFR) (Homo sapiens)
# Sequence (P00374 1-187): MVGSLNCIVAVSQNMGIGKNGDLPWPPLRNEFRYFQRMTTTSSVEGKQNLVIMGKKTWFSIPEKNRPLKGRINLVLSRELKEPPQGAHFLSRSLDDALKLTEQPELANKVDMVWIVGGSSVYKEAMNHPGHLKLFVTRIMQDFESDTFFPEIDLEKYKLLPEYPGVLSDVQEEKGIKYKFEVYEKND
# MEASUREMENT_DESCRIPTION: DHFR inhibitor screening assay
# Format: biochemical
# EXPERIMENTAL_SETUP: read-out: percent inhibition of DHFR at 0.1 (μg/mL)
Give just the numeric value; % need not be written.

{"COMPOUND": "Nc1n[nH]c2c(-c3nc4ccccc4s3)c(N)n(NS(=O)(=O)c3ccccc3)c(=O)c12", "REPORTED_VALUE": 33.8}
{"COMPOUND": "CCOC(=O)c1cc(C#N)c(=O)n(NS(=O)(=O)c2ccc(C)cc2)c1N [15d]", "REPORTED_VALUE": 20.7}
{"COMPOUND": "Nc1ccc(S(=O)(=O)Nc2ncccn2)cc1 [sulfadiazine, reference compound]", "REPORTED_VALUE": 46.8}

Challenge: Field request: inhibition at 0.1 µg/mL | item: "CSc1c(-c2nc3ccccc3s2)c(N)n(NS(=O)(=O)c2ccc(C)cc2)c(=O)c1C#N"
Response given: 40.8
